Sourced from paper PMC9588787

Test system: Gal-1
experimentNotes: Glycopeptide microarray lectin binding assay, Gal-1
Design: species or system human
details: compounds immobilised at 20 and/or 200 μM, quadruplets; labelled Gal-1 0.10-32.0 µg/mL, PBS pH 7.4, no reducing agent, ambient air (partially oxidizing)
recordedMetric: Gal-1 binding, microarray signal intensity (RFU)

substance	reportedResult
5-oxo-hexanoyl-TRGAIIQTPTLGPIQPTRV -NH2 [compound 26, α-DG glycopeptide with heterogeneous glycans: LacNAc core M1 and core M1]	bound
